For each entry below, report its protein stability index value.
Procedure details: protein stability index of a GFP-peptide fusion (yeast GPS) (PSI 1-4); higher = more stable; sorted into four equal gates, so the index is relative within each strain
Protocol conditions: san1∆
Numbers only.

[
  {
    "Sequence string": "LESTIAETQGSKVVIDS [IRR1]",
    "Readout type": "protein stability index",
    "Data value": 3.06
  }
]

Could I get protein stability index for every one of these entries?
1. TNRHTLALETVLIKMVK [SIR3]
2. LGKRINSAVNNAISNTQ [SRP54]
3. EVTAGEAQDEASLQQQQ [SNF6]
4. LESTKAETDYVDPKRLA [DSN1]
5. FATNEERQMNFLTNELI [SWI3]
6. WSFDLPEMSNLYRLSTP [PRP8]
7. TITDLIEQGIPKHSYLS [SIR4]

1. 2.61
2. 2.91
3. 3.29
4. 3.04
5. 1.96
6. 2.59
7. 3.21

Could I get protein stability index for every one of these entries?
1. KRINFEKIKDIHNTKLP [POP1]
2. TANDRQINNVHLIPNEI [RPN4]
3. LANEERLSNEMHALKNR [RGR1]

[2.87, 2.92, 3.4]

Could I get protein stability index for every one of these entries?
1. FHTSFSAVVGPNGSGKS [SMC4]
2. LVKIDDLSANQRETMKE [SMC1]
3. ILDGQDVEENRSEFIES [YJR042W/NUP85]

[3.35, 3, 3.48]

Data point: AIQLDYSTANEYIIAAI [RPN3] ; protein stability index = 2.32

* * *

Procedure details: protein stability index of a GFP-peptide fusion (yeast GPS) (PSI 1-4); higher = more stable; sorted into four equal gates, so the index is relative within each strain
Protocol conditions: doa10∆
Readout type: protein stability index

The cases that follow already have their protein stability index on record.
[
  {
    "Sequence string": "FRKIKLRVDEVQGKNLL [RPS1A]",
    "Readout type": "protein stability index",
    "Data value": 2.96
  },
  {
    "Sequence string": "DENKASATSKPAFSFGA [YJL041W/NSP1]",
    "Readout type": "protein stability index",
    "Data value": 2.96
  }
]

Could I get protein stability index for every one of these entries?
1. SVSFKVFLLLQAYFSRL [BRR2]
2. DEEETAEGQTNSISDFL [RPN1]

1.39
2.84

Could I get protein stability index for every one of these entries?
1. LWKLLSTVKVSDLNLTD [YLR018C/POM34]
2. TSDPVMHKQLAYILAAQ [RPN1]
3. SASPHLAPNMQLNGNET [SNF2]
4. SPLYMDTETFDTVNSAL [YML103C/NUP188]
5. ETVFNYRLMIKRLNFSF [GRR1]
6. EYINNCKKNTKKCLKLA [POP4]

2.35
1.68
3.23
3.11
1.84
2.82

* * *

Procedure details: protein stability index of a GFP-peptide fusion (yeast GPS) (PSI 1-4); higher = more stable; sorted into four equal gates, so the index is relative within each strain
Protocol conditions: doa10∆
Readout type: protein stability index
Answers are plain numbers.

The cases that follow already have their protein stability index on record.
[
  {
    "Sequence string": "KRQELEEASQQQQLQQN [MED2]",
    "protein stability index": 2.75
  },
  {
    "Sequence string": "LESTKAETDYVDPKRLA [DSN1]",
    "protein stability index": 2.96
  },
  {
    "Sequence string": "HPPFIKYACLAIRKNGQ [SIN4]",
    "protein stability index": 1.45
  },
  {
    "Sequence string": "SKLGKNLQTVHFGHCFN [GRR1]",
    "protein stability index": 1.42
  },
  {
    "Sequence string": "FITNVQSISQNSSSSTP [SWI1]",
    "protein stability index": 2.38
  },
  {
    "Sequence string": "DHNGVPFPQYPAGMNET [ITC1]",
    "protein stability index": 1.97
  }
]

Could I get protein stability index for every one of these entries?
1. PNIFPNLTYYNEKLECI [ITC1]
2. VLTHESLHRQQQQQQQQ [DLS1]
3. HINSILLARVIQMNNSL [SNF11]
4. SSTPKFTKKPVTPNDKI [SIR4]
5. RIAVLHQKTKTLASLSI [YGL172W/NUP49]
6. VKIGKFIPHGLKRRQVI [SRB8]
7. NNSTSNANTVFSERAAM [SWI1]
8. NVGTNTYRLGEWSKISV [POP1]

1: 2.6; 2: 3; 3: 2.22; 4: 2.96; 5: 2.31; 6: 2.48; 7: 2.63; 8: 1.97

Could I get protein stability index for every one of these entries?
1. LLKLTKVFIRESLSLKN [YML103C/NUP188]
2. VFGTIIPKISDYIEFNI [YJL039C/NUP192]
3. RKCETQKQWDDIAFVLN [YCS4]
4. EEDVYLDPLARVSKDKK [FAS2]
5. DGGKTLRACAANVDQIS [YMR129W/POM152]
6. NKKSEENEMIKPMNKGQ [SWP82]
7. PSTNKKLSISNAASQQP [GAL11]

1. 1.72
2. 2.05
3. 2.96
4. 3.5
5. 2.15
6. 3.09
7. 2.48
